systemTested: T1, recombinant human GM-CSF protein (human, UniProt P04141 18-144)
T1 construct: Bought recombinant protein (Genscript); also called biotinylated human GM-CSF protein
T1 sequence (P04141 18-144 limits assumed): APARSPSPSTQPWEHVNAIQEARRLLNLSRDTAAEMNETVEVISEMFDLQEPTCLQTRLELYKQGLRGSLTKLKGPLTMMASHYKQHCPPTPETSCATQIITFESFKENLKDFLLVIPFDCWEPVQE
experimentDescription: SPR Biacore T200, antibody captured by anti-human Fc, GM-CSF as analyte, 25 C, 1:1 model
recordedEndpoint: pKd
Notebook: values listed as pKd are -log10 of the concentration (mol/L).

Measured pKd, Hu23F4-23 (antibody, V domains shown, Humanized) VH: EVQLVQSGAEVKKPGASVKVSCKASGYTFTSHYLHWVRQAPGQGLEWMGWIFPGDDKTKYNEKFKGRVTMTRDTSISTAYMELSRLRSDDTAVYYCARGTKYLNWNFDVWGQGTTVTVSS VL: DIQLTQSPSFLSASVGDRVTITCKANQNVGTTLAWYQQKPGKSPKALIYSASYRYSGVPDRFSGSGSGTDFTLTISSLQPEDFATYFCHQYTTYPLTFGGGTKVEIK : 9.89

Measured pKd, 50C5 chimera (antibody, V domains shown, Human constant regions (captured by anti-human Fc IgG); also called 35230Hu50C5-chimera; Hu50C5-chimera) VH: QVQLQQSAAELVRPGASVKMSCKASGYIFTPYSIHWIKQRPGQGLEWIGYINPSTGYIEYNQHFKDRTTLTADKSSSTAYMQLRSLTSEDSAVYYCARGGDYEGYFDYWGQGTTLTVSS VL: DIQMTQSPDSLSASVGETVTITCRLNENIYSFLAWYQQRQGKSPQLLVYNAETLAEDVPSRFSGSGSGTQFSLKISSLQTDDFGTYYCQQHYGTPYTFGGGTNLEIE : 10.49

Attribution: patent US20190002549A1
